subjectOfTest: T1, human EphA4 extracellular region-SEAP-His protein (human, UniProt P54764 20-547)
T1 construct: also called hEphA4-SEAP-His
protocolNotes: competition ELISA: human EphA4 extracellular region-SEAP-His captured on the plate, blocked ligand biotinylated human Ephrin A5-Fc chimera (0.7 nM)
Protocol: Antibody A obtained in Example 1 was evaluated for its inhibitory activity against the binding between human EphA4 and its human ligand according to the following steps. Each well of a 96-well plate (Nunc) was coated with an anti-alkaline phosphatase antibody (Thermo Fisher Scientific). […] The absorbance at 450 nm was read using a microplate reader (Molecular Devices or PerkinElmer). […]
experimentalReadout: pIC50
Answers are plain numbers, as −log10 of the molar value.

Q) Item under review: KYLPYWPVLSSL (synthetic peptide) [KYL peptide] . Reported pIC50?
A) 5.21
